- Tested on: P. falciparum 3D7 growth, pLDH absorbance
- ASSAY OVERVIEW: blood-stage malaria parasite growth potency – strain 3D7, dose response (AID 2305)
Define the label as 1 (yes) when IC50 is strictly less than 600 nM and as 0 (no) in all remaining cases.

Consider the following illustrative entries.
CC(CN1CCN(C)CC1)C(=O)Nc1ccc(-c2ccc(-c3nc4ccccc4[nH]3)s2)cc1 (centres undefined)	0 (no)
Cc1[nH]c2c(C)cc(NS(C)(=O)=O)cc2c1C1CCN(CC2CCN(C(=O)/C=C/c3ccc(Cl)c(Cl)c3)CC2)CC1	1 (yes)
Cc1cccc2[nH]c(-c3ccc(-c4cccc(NC(=O)Nc5ccsc5)c4)s3)nc12	1 (yes)
CCN(CC)Cc1cccc(-c2cc3c(-c4ccc(C(=O)O)c(C(C)C)c4)ccnc3[nH]2)c1OC	1 (yes)
Cc1[nH]c2ccccc2c1C=NNc1nc(Nc2ccccc2)nc(Nc2ccccc2)n1	0 (no)

IC50 under 600 nM? Item: COc1ccc2nccc([C@@H](O)CN3CC[C@H](NCc4ccc5c(n4)NC(=O)CS5)[C@H](F)C3)c2c1
0 (no)

Field: below-cutoff. Rule: recorded IC50 strictly less than 600 nM. Subject: CCCc1ccc(S(=O)(=O)NC2CCN(c3ccnc(Nc4ccc(F)cc4)n3)C2)cc1 (centres undefined)
0 (no)

Input CN(C)CCNC(=O)c1ccc2c(c1)ncn2-c1cc(OCc2ccccc2C(F)(F)F)c(C(N)=O)s1 (tested in a mixture with another compound) ; condition: IC50 strictly below 600 nM. Does it hold?
0 (no)

Problem: For the molecule O=[N+]([O-])c1cccc(CNC2CCN(Cc3ccc4ccccc4c3)CC2)c1 , is IC50 under 600 nM?
0 (no)

is_below(IC50, 600 nM) for O=C(NCCNc1ccnc(Nc2ccc(F)cc2)n1)c1cc2ccccc2s1 ?
0 (no)

Determine whether this molecule shows IC50 lower than 600 nM (ties excluded): Oc1ccc(C2CNCCc3c2cc(O)c(OCc2ccccc2)c3Cl)cc1 (centres undefined)
0 (no)

hey, is IC50 for CCCCCN1CCCC(CNS(=O)(=O)c2cccc(C(=O)Nc3ccc(C(F)(F)F)cc3)c2)C1 (centres undefined) lower than 600 nM or not?
0 (no)

Identify whether the molecule COCc1nc(-c2ccccc2)nc(N2CCN(C(=O)NC(C)C)CC2)c1Cc1ccccc1F records IC50 below 600 nM.
0 (no)

Is the reported IC50 for CC(C)(C)c1nn(-c2ccccc2)c2[nH]c(=O)c(CNCCc3ccccc3)cc12 strictly below 600 nM?
0 (no)

For this molecule, is IC50 lower than 600 nM? Cc1cccc(Cn2ccc3c4c(N)nc(N)nc4ccc32)c1
1 (yes)

Field: below-cutoff. Rule: recorded IC50 strictly less than 600 nM. Subject: CC(C)C(=O)NC(c1ccc(Cl)cc1)c1ccc2cccnc2c1O (centres undefined)
0 (no)

Answer whether the molecule CCC(C)NS(=O)(=O)c1ccc2nc(Nc3ccc(C)c(Cl)c3)n(C3CCCCC3)c2c1 (centres undefined) has IC50 strictly less than 600 nM
1 (yes)

Record COc1ccc(O)c(Cc2cnc3nc(N)[nH]c(=O)c3c2C)c1 : is its IC50 strictly below 600 nM?
1 (yes)

---

# pIC50 annotations
- Test system: P. falciparum 3D7 growth, pLDH absorbance
- ASSAY OVERVIEW: blood-stage malaria parasite growth potency – strain 3D7, dose response (AID 2305)
In plain terms, pIC50 is the concentration in mol/L turned into minus its base-10 logarithm.

Below, each entry is followed by its recorded pIC50 result.
COc1ccc(C(=O)Nc2ccc(-c3nc4ccc(C)cc4[nH]3)cc2)cc1OC	6.12
CN(C)CCOc1cc(NC(=O)Nc2ccc3c(c2)CCCC3=O)ccc1I	6.03
O=c1cc(NC[C@H]2CCC[C@@H]2NC2CCCc3c2[nH]c2ccccc32)[nH]c2ccccc12 (some centres undefined)	6.10
CC(C)CNCc1cccc(-c2ccc(CNc3ccc(C(=O)c4ccccc4)cc3)cc2)c1	6.12
CC(=O)N(C)C1CCN(Cc2ccc(-c3ccc(-c4nc5ccc(F)cc5[nH]4)s3)cc2)C1 (centres undefined)	6.01
Cc1noc(C)c1-c1cccc(CNCc2ccc(-c3cccc(-c4nc5c(C)cccc5[nH]4)c3)cc2)c1	6.66
CC(Cc1ccc(S(=O)(=O)N(C(C)C)C(C)C)cc1)NCC(O)c1cccc(C(F)(F)F)c1 (centres undefined)	6.16
COc1cc(/C=C/C(=O)NC2CCC(N3CCC(c4ccccc4C)CC3)CC2)cc(OC)c1 (centres undefined)	6.01
c1cncc(Oc2ccc(Nc3ccnc4cc(-c5cccc(CN6CCOCC6)c5)ccc34)cc2)c1	6.51
O=C(Nc1ccc(-c2ccc(-c3nc4ccc(C(F)(F)F)cc4[nH]3)s2)cc1)c1cnc[nH]1	6.17

# next molecule below
The reported value for COc1ccc2nccc(N3CCC(CCNCc4cc5c(cn4)OCCO5)CC3)c2c1 in terms of pIC50 is 6.06

---

Quick list: pIC50 per entry.
- Test system: P. falciparum 3D7 growth, pLDH absorbance
- ASSAY OVERVIEW: blood-stage malaria parasite growth potency – strain 3D7, dose response (AID 2305)
Quick note: pIC50 values are minus log10 of concentrations in mol/L.

For orientation, consider the following solved cases.
CCOC(=O)CCCOc1c(OC)cc(Cc2cnc(N)nc2N)cc1OC	6.11
CCCCc1ccc(-c2nc(NC(=O)Nc3nc(-c4ccccc4)[nH]c3C(=O)OCC)c(C(=O)OCC)[nH]2)cc1	6.12
COc1ccc(CNCCc2cccs2)cc1-c1ccc(OC)c(S(=O)(=O)NCCN2CCCC2)c1	5.85

For this compound ( Cc1cnc(C(=O)Nc2ccc3c(c2)CCCN(Cc2c[nH]c4cnccc24)C3)cn1 ), measured pIC50 is 5.91

Item: O=C(N[C@@H](Cc1ccccc1)C(=O)NC1CCCCCC1)c1ccc(O)c(-c2ccc(Cl)c(Cl)c2)c1 | pIC50: 6.48

Sure, the documented pIC50 for Cc1cc(N)ncc1-c1ccc(NC(=O)Nc2cc(C(F)(F)F)ccc2F)cc1 is 6.15

# pIC50 of CCc1cccc(C)c1-n1nc(-c2cc(C(C)(C)C)oc2C)cc1N = 6.18

C=CCc1cccc(CN2CCC(c3cc(=O)[nH]c(-c4ccccn4)n3)CC2)c1O yielded pIC50 of 5.96

Measured pIC50 of Nc1c(Cl)cc(C(O)CNCCCCCCOCCc2ccc(CO)s2)cc1Cl (stereo not given) : 5.98

Entry CCCc1cc(Cc2cnc(N)nc2N)cc(CCC)c1OCCCCCC(=O)OCC ; pIC50 = 7.30

---

log10 IC50 values, listed per item
- Tested on: P. falciparum 3D7 growth, pLDH absorbance
- ASSAY OVERVIEW: blood-stage malaria parasite growth potency – strain 3D7, dose response (AID 2305)
Base-10 log of IC50, unit µM.

Sample CN(c1ccnc(Nc2ccc(CS(C)(=O)=O)cc2)n1)C1CCN(Cc2ccccc2)CC1 ; log10 IC50 observed: 0.15

What the record says about COc1cccc(CN2CCCC(CCC(=O)Nc3ccc(C(F)(F)F)cc3)C2)c1O (centres undefined) : log10 IC50 is -0.12

Item: COc1ccc(C(c2ccc(N(C)C)cc2)c2ccc(N(C)C)cc2)cc1 | log10 IC50: -1.22

log10 IC50 reading for C=CCN(C(=O)c1ccc(Cl)c([N+](=O)[O-])c1)c1nc(-c2ccccc2)cs1 : -0.40

Input CCCC(C)NC[C@@H](O)[C@H](Cc1ccccc1)NC(=O)c1cc(C2CCCC2)cc(N2CCCCS2(=O)=O)c1 (some centres undefined) . Output log10 IC50: -0.82

Reported log10 IC50 for CCn1c(-c2nonc2N)nc2c(-c3cccc(NC(=O)Nc4cccc(Cl)c4)c3)ncc(OCCCN)c21 was -0.03

Measured log10 IC50 of CCCC(C)Nc1nc(C)cc(N[C@@H](CC(C)C)C(=O)NCc2ccc(C)cc2)n1 (some centres undefined) : 0.00

The molecule identified as COc1ccc(C2C(C(=O)Nc3cc(C)ccc3OC)c3ccccc3C(=O)N2C)cc1 (centres undefined) registered its log10 IC50 at -0.01

Per the records, this molecule ( CC(C)N(C(=O)CSc1nc2cc(Cl)ccc2c(=O)n1Cc1ccccc1)C(C)C ) has log10 IC50 equal to -0.77

---

Quick reference: pIC50 of the listed items.
- System: P. falciparum 3D7 growth, pLDH absorbance
- ASSAY OVERVIEW: blood-stage malaria parasite growth potency – strain 3D7, dose response (AID 2305)
Recall that pIC50 is obtained by taking minus log10 of the concentration measured in molar.

Some solved cases for reference:
COc1ccc(C(F)(F)F)cc1N1CCN(CCCCNC(=O)c2ccc(NC(=O)c3ccc(Cl)cc3)cc2)CC1	6.04
Cc1cc(N[C@@H](Cc2ccccc2)C(=O)NCc2cccc(F)c2)nc(NCCCOC(C)C)n1	6.04
Cc1noc(-c2ccc(NC[C@@H](C)NC[C@H](O)c3cccc(Cl)c3)cc2)n1	6.12
COCCOCCOCCn1ccc2c3c(N)nc(N)nc3ccc21	6.59
CCN(CC)CCN(Cc1ccc(-c2ccc(C(F)(F)F)cc2)cc1)C(=O)Cn1c(SCc2ccc(F)cc2)nc(=O)c2ccccc21	6.11

Field pIC50 (entry O=C(NCc1cccc(CN2CCOCC2)c1)c1cc(Br)cc(N2CCN(c3ccncc3)CC2)c1 ) reads 6.07

Lookup result for Cc1cccc2[nH]c(-c3ccc(-c4cccc(NC(=O)Nc5ccc(F)c(F)c5F)c4)cc3)nc12 ; measured pIC50: 6.47

Lab book: pIC50 of CC[C@H]1CN2CC[C@H]1C[C@@H]2[C@@H](O)c1ccnc2ccc(OC)cc12 noted as 6.92

Consider O=C(N[C@@H](CC1CCCCC1)C(=O)NC1CCCc2ccccc21)c1ccc(O)c(-c2ccc(Cl)c(Cl)c2)c1 (some centres undefined) . Its measured pIC50 is 6.70

Short answer for CN(C)c1ccc(-c2csc(C(=O)NC3CCCCN(Cc4ccc(C(C)(C)C)cc4)C3)c2)cc1 (centres undefined) : pIC50 was 5.95

The compound identified as Cc1cccc(CCNC(=O)c2cc(Br)cc(N3CCN(c4ccncc4)CC3)c2)c1 registered its pIC50 at 6.06

The compound identified as NCC(=O)NC12CC3CC(CC(C3)C1)C2 registered its pIC50 at 5.92

Consider CC(C)c1cc2c(ccc3nc(N)nc(N)c32)o1 . Its measured pIC50 is 7.05

The value of pIC50 measured for the compound O=C(/C=C/c1ccc(Cl)c(Cl)c1)N1CCC(CN2CCC(c3c[nH]c4cnccc34)CC2)CC1 turned out to be 6.66

Record CC(=O)Nc1ccc(CN2CCC(NC(=O)c3ccc(-c4cccc(OC(C)C)c4)s3)CC2)cc1 , field pIC50: 5.84

Form field pIC50, entry COc1cc2nc(N[C@@H](CO)c3ccccc3)nc(NCc3ccccc3)c2cc1OC : 6.18

# pIC50 (compound: CN1CCN(CCCN(Cc2csc(-c3ccc(CNCc4ccccc4)cc3)n2)S(=O)(=O)c2ccc(F)cc2)CC1 ) is 6.07

The value of pIC50 measured for the compound NCCCCNc1cc(-c2ccnc(Nc3cccc(Cl)c3)n2)ccn1 turned out to be 6.55

Consider CC(C)(C)OC(=O)NCc1ccc(Nc2nnc(-c3cccc(C(=O)NCCC(c4ccccc4)c4ccccc4)c3)o2)cc1 . Its measured pIC50 is 6.24
